Origin of values: patent US7709235B2

Test system: purified hydantoin racemase
Assay: Substrate specificity of purified hydantoin racemase
Assay type: biochemical, Bacillus sp. KNK519HR
Conditions: purified enzyme; activity for L-5-(2-methylthioethyl)hydantoin taken at 100; 30° C., Tris-HCl pH 7.5; substrate 4-50 mM
Rule: Relative Activity under 50 gives NO, otherwise YES.

Worked examples follow.
1. CC(C)(S)C1NC(=O)NC1=O (stereo not drawn)    NO
2. CC(C)C[C@@H]1NC(=O)NC1=O    YES
3. CCC(C)[C@@H]1NC(=O)NC1=O (stereo partly drawn)    NO
4. O=C1NC(=O)[C@H](Cc2ccccc2)N1    YES

Now consider the entry below.
Entry CSCC[C@@H]1NC(=O)NC1=O : is its Relative Activity no less than 50?
YES
